The measured values listed here are drawn from patent US9839629B2.

# target-under-test: UniProtKB P48048
# procedure-summary: Thallium Flux Assay
pIC50: −log10 of the molar value.
# pIC50 annotations
measurement-type: pIC50

chemical-structure	measurement-type	measured-number
Cc1c(N2CCC3(CCN(C[C@@H](O)c4ccc(-n5cnnn5)nn4)CC3)CC2)c(=O)c1=O	pIC50	6.12
Cc1c([C@@H](O)CN2CCC3(CC2)CCN(C2=CC(=O)CC2)CC3)ccc2c1COC2=O	pIC50	6.36
Cc1cc(-n2cnnn2)ccc1[C@H](O)CN1CCC2(CC1)CCN(C1=CC(=O)OC1)CC2	pIC50	7.66
Cc1cc(-n2cnnn2)cnc1[C@@H](O)CN1CCC2(CC1)CCN(C1=CC(=O)OC1)CC2	pIC50	7.01

---

# target-under-test: ROMK (Kir1.1) channel (Homo sapiens, UniProt P48048)
# Sequence (P48048 whole entry): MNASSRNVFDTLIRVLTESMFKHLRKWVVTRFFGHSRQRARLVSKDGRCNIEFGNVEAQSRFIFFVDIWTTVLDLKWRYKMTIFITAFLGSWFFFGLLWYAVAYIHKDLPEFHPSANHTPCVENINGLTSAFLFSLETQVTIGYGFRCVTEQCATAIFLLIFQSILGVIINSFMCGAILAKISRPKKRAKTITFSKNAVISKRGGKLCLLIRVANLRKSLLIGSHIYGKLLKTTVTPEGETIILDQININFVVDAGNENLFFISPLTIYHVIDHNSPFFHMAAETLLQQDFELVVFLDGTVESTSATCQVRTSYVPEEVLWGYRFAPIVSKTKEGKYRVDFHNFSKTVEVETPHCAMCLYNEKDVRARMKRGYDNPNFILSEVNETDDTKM
# procedure-summary: Thallium Flux Assay
# IC50 annotations

compound	readout-units	IC50
Cc1c([C@@H](O)CN2CCC3(CC2)CCN(C2=C(F)C(=O)OC2)CC3)ccc2c1COC2=O [Example 38]	nM	7
CO[C@@H](CN1CCC2(CC1)CCN(c1c(C)c(=O)c1=O)CC2)c1ccc2c(c1C)COC2=O [Example 4]	nM	230
Cc1cc(-n2cnnn2)cnc1C(O)CN1CCC2(CC1)CCN(C1=CC(=O)OC1)CC2 (stereo in doubt) [Example 21]	nM	181
O=C1C=C(N2CCC3(CCN(C[C@H](O)c4ccc(-n5cnnn5)nc4)CC3)OC2=O)CO1 [Example 30]	nM	171

---

# target-under-test: ROMK (Kir1.1) channel (Homo sapiens)
# procedure-summary: Thallium Flux Assay
Note to self: use t only for IC50 readings below 0.1 µM; a reading exactly at 0.1 µM still gets f.

molecule	category
Cc1nc(-n2cnnn2)ccc1[C@@H](O)CN1CCC2(CC1)CCN(C1=C(C3CC3)C(=O)OC1)CC2 (stereo in doubt)	t
CC1=C(N2CCC3(CCN(C[C@@H](O)c4ccc(-n5cnnn5)nc4C)CC3)CC2)CCC1=O	f
COc1cc(C#N)ncc1[C@@H](O)CN1CCC2(CC1)CCN(C1=CC(=O)OC1)CC2	f
Cc1c(N2CCC3(CCN(C[C@H](O)c4ccc5c(ccc6nnnn65)c4)CC3)CC2)c(=O)c1=O	f
Cc1nc(-n2cnnn2)ccc1[C@@H](O)CN1CCC2(CC1)CCN(C1=CC(=O)CC1)CC2	t
Cc1c([C@@H](O)CN2CCC3(CC2)CCN(c2c(C4CC4)c(=O)c2=O)CC3)ccc2c1COC2=O	f
Cc1nc(-n2cnnn2)ccc1[C@@H](O)CN1CCC2(CC1)CCN(C1=C(F)C(=O)OC1)CC2	t
Cc1nc(-n2cnnn2)ccc1[C@H](O)CN1CCC2(CC1)CCN(C1=CC(=O)OC1)CC2	t
COCO[C@@H]1CN(C2=C(C)C(=O)OC2)CCC12CCN(C[C@H](O)c1ccc3c(c1C)COC3=O)CC2	f
CC1=C(N2CCC3(CCN(C[C@@H](O)c4ccc(-n5cnnn5)cc4F)CC3)CC2)COC1=O	t
C[C@H]1Cc2cc([C@H](O)CN3CCC4(CC3)CCN(C3=CC(=O)OC3)CC4)ccc2C(=O)O1	f
CC1=C(N2CCC3(CCN(C[C@H](O)c4ccc(-n5cnnn5)cc4C)CC3)CC2)COC1=O	t
CC1=C(N2CCC3(CCN(CC(O)c4ccc(Br)cc4)CC3)CC2)COC1=O (stereo not drawn)	f
Cc1c(N2CCC3(CCN(C[C@@H](O)c4cnc(-n5cnnn5)cn4)CC3)CC2)c(=O)c1=O	f
Cc1nc(-n2cnnn2)ccc1[C@@H](O)CN1CCC2(CC1)CCN(C1=CC(=O)OC1)C(=O)O2	t
